Listed here are compounds together with their documented cell viability.
# Tested on: MOLM14;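 further: after 48 h exposure read by CellTiter-Glo luminescence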
# testMethodNotes: cell viability relative to vehicle control; higher = less cytotoxic
# setupConditions: 10 µM; SRSF2 genotype: SRSF2 P95H/wt
Structures can show the parent of a compound that is named as a salt.

- compound: "COC(=O)C1=C(C#N)NC(C)=C(C(=O)OC(C)C)C1c1cccc([N+](=O)[O-])c1 (stereo not drawn) [Nilvadipine (ARC029)]"
  targetUnderTest: "MOLM14"
  cell viability: "80.9%"
- compound: "O=C(CCCCCN1C(=O)c2cccc3cccc(c23)C1=O)NO [Scriptaid]"
  targetUnderTest: "MOLM14"
  cell viability: "0.6%"
- compound: "COc1ccc(S(=O)(=O)N(C(C)=O)c2ccccc2/C=C/c2cc[n+]([O-])cc2)cc1"
  targetUnderTest: "MOLM14"
  cell viability: "15.9%"
- compound: "NC(=O)c1cnc2[nH]ccc2c1N[C@@H]1[C@@H]2CC3C[C@H]1C[C@@](O)(C3)C2"
  targetUnderTest: "MOLM14"
  cell viability: "13.2%"
- compound: "C=C1CCC[C@]2(C)C=C3OC(=O)C(C)=C3C[C@@H]12 [Atractylenolide I]"
  targetUnderTest: "MOLM14"
  cell viability: "103%"
- compound: "CN1CCN(C2=Nc3cc(Cl)ccc3Nc3ccccc32)CC1 [Clozapine (Clozaril)]"
  targetUnderTest: "MOLM14"
  cell viability: "101%"
- compound: "COc1cc(Br)c(Nc2nc(-c3c(C)nc4ncccn34)cs2)c(Br)c1"
  targetUnderTest: "MOLM14"
  cell viability: "16%"
- compound: "N[C@@H]1CCCCN(c2c(F)cc3c(=O)c(C(=O)O)cn(C4CC4)c3c2Cl)C1 [Besifloxacin HCl (Besivance)]"
  targetUnderTest: "MOLM14"
  cell viability: "97.6%"
